study_system: human GPR131 (Homo sapiens)
Construct: expressed in transfected cells
procedure_summary: Stimulation of cAMP in stable cell line expressing human GPR131 (FRET cAMP kit)
Assay type: cell-based
setup_conditions: 0.5 h; 1.1 μM compound, relative to maximal stimulatory activity of lithocholic acid at 3.3 μM; 30 minutes at 37° C.; read-out: Percent Activity @ 1.1 μM (of 3.3 uM LCA) (%)
measurement_label: activation at 1.1 µM (%)
Report the value in % with no unit label.

Observe how each entry below is paired with its result.
# molecule, activation at 1.1 µM / %
data = [
    ("Cc1nn(C)cc1CN(C)C(=O)c1cnc(CSCc2c(F)ccc(F)c2F)n1-c1ccc(F)cc1 [Compound 572]", 88),
    ("Cc1nn(C)cc1CN(C)C(=O)c1cnc(SCc2ncccn2)n1-c1ccc(F)cc1 [Compound 635]", 98),
    ("Cc1nn(C)cc1CNCc1cnc(SCc2c(F)ccc(F)c2F)n1-c1ccc(F)cc1 [Compound 531]", 84),
]

Now examine the next entry.
GET /value?item= CN(Cc1ccncc1)C(=O)c1cnc(SCc2cc(F)cc(F)c2F)n1-c1ccc(F)cc1 [Compound 619] &field=activation at 1.1 µM returns 96

* * *

study_system: human GPR131 (Homo sapiens)
Construct: expressed in transfected cells
Sequence (Q8TDU6 1-330): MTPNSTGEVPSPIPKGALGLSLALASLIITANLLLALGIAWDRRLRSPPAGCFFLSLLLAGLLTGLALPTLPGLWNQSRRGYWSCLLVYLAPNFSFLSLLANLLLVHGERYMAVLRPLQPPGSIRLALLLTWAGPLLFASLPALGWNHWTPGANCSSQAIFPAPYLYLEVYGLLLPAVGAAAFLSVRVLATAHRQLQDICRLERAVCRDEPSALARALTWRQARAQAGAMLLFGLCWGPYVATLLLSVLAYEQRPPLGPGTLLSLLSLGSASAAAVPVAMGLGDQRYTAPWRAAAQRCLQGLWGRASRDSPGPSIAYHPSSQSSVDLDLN
procedure_summary: Stimulation of cAMP in stable cell line expressing human GPR131 (FRET cAMP kit)
Type: cell-based
setup_conditions: 0.5 h; 1.1 μM compound, relative to maximal stimulatory activity of lithocholic acid at 3.3 μM; 30 minutes at 37° C.; read-out: Percent Activity @ 1.1 μM (of 3.3 uM LCA) (%)
Experimental: This assay was developed using a stable cell line expressing human GPR131. To measure cAMP activity in response to GPR131 agonists, GPR131 cells suspended in DMEM/F12 medium with 1 mM IBMX were seeded in 384 well plates at 5000 cells per well. After incubating with test compounds at 37° C. for 30 minutes cAMP was measured using a fluorescene resonance energy transfer cAMP kit from Cis Bio (Bedford, Mass.) according to the manufacturer's instructions. […]
Quick list: activation at 1.1 µM per entry.
Include the unit right after the number.

# compound, study_system, activation at 1.1 µM
records = [
    ("CN(Cc1ccncc1)C(=O)c1cnc(SCc2c(Cl)cccc2Cl)n1-c1ccc(F)cc1 [Compound 561]", "human GPR131 (Homo sapiens)", "95%"),
]

GET /value?item= CN(Cc1ccncc1)C(=O)c1cnc(SCc2cccc(C(F)(F)F)c2)n1-c1ccc(F)cc1 [Compound 621] &field=activation at 1.1 µM returns 98%

* * *

study_system: human GPR131 (Homo sapiens, UniProt Q8TDU6)
Construct: expressed in transfected cells
Sequence (Q8TDU6 1-330): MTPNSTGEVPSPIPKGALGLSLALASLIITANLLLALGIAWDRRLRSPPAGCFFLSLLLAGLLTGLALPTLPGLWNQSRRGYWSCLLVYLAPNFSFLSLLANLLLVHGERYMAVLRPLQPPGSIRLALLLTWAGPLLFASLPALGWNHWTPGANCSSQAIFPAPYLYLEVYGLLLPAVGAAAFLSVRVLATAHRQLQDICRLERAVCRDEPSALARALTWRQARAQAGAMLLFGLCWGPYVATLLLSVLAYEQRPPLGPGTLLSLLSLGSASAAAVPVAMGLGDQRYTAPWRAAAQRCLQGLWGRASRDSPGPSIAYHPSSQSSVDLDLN
procedure_summary: Stimulation of cAMP in stable cell line expressing human GPR131 (FRET cAMP kit)
Assay type: cell-based
setup_conditions: 0.5 h; 1.1 μM compound, relative to maximal stimulatory activity of lithocholic acid at 3.3 μM; 30 minutes at 37° C.; read-out: Percent Activity @ 1.1 μM (of 3.3 uM LCA) (%)
Quick list: activation at 1.1 µM per entry.
Include the unit right after the number.

Observe how each entry below is paired with its result.
# compound, study_system, measurement_label, result
data = [
    ("CN(Cc1ccncc1)C(=O)c1cnc(SCc2c(F)cccc2C(F)(F)F)n1-c1ccc(F)cc1 [Compound 607]", "human GPR131 (Homo sapiens, UniProt Q8TDU6)", "activation at 1.1 µM", "93%"),
    ("CN(Cc1ccncc1)C(=O)c1cnc(CCc2ccccc2F)n1-c1ccc(F)cc1 [Compound 538]", "human GPR131 (Homo sapiens, UniProt Q8TDU6)", "activation at 1.1 µM", "90%"),
    ("Cc1cnccc1CN(C)C(=O)c1cnc(SCc2c(F)ccc(F)c2F)n1-c1ccc(F)cc1 [Compound 502]", "human GPR131 (Homo sapiens, UniProt Q8TDU6)", "activation at 1.1 µM", "100%"),
]

Cc1nn(C)cc1CN(C)C(=O)c1cnc(SCc2c(F)cc(C(=O)OC(C)(C)C)cc2F)n1-c1ccc(F)cc1 [Compound 542] tested on human GPR131 (Homo sapiens, UniProt Q8TDU6) gave activation at 1.1 µM: 100%

Cc1nn(C)cc1CN(C)C(=O)c1cnc(SCc2c(F)cccc2Cl)n1-c1ccccc1 [Compound 554] tested on human GPR131 (Homo sapiens, UniProt Q8TDU6) gave activation at 1.1 µM: 99%

* * *

Quick list: activation at 1.1 µM per entry.
study_system: human GPR131 (Homo sapiens, UniProt Q8TDU6)
Construct: expressed in transfected cells
Sequence (Q8TDU6 1-330): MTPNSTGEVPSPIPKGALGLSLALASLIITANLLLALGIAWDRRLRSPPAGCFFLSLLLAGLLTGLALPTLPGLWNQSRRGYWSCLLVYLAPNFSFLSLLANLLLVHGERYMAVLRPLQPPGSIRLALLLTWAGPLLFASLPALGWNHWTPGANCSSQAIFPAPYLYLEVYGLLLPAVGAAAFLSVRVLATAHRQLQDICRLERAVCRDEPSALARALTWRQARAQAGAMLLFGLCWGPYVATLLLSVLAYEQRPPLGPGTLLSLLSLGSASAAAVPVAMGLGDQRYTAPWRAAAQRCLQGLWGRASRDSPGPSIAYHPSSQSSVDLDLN
procedure_summary: Stimulation of cAMP in stable cell line expressing human GPR131 (FRET cAMP kit)
Type: cell-based
setup_conditions: 0.5 h; 1.1 μM compound, relative to maximal stimulatory activity of lithocholic acid at 3.3 μM; 30 minutes at 37° C.; read-out: Percent Activity @ 1.1 μM (of 3.3 uM LCA) (%)
Report the value in % with no unit label.

Observe how each entry below is paired with its result.
# smiles, measurement_label, numeric_result
data = [
    ("Cc1nn(C)cc1CN(C)C(=O)c1cnc(SCc2ncn(C)n2)n1-c1ccc(F)cc1", "activation at 1.1 µM", 91),
    ("CN(Cc1ccncc1)C(=O)c1cnc(SCc2c(F)cccc2Cl)n1C1CCCCC1", "activation at 1.1 µM", 99),
    ("Cc1nn(C)cc1CN(C)C(=O)c1cnc(Br)n1-c1ccc(F)cc1", "activation at 1.1 µM", 86),
]

Now examine the next entry.
GET /value?item= CN(Cc1ccncc1)C(=O)c1cnc(SCc2c(F)cccc2Cl)n1-c1ccc(Cl)cc1 &field=activation at 1.1 µM returns 99

* * *

study_system: human GPR131 (Homo sapiens)
Construct: expressed in transfected cells
procedure_summary: Stimulation of cAMP in stable cell line expressing human GPR131 (FRET cAMP kit)
Type: cell-based
setup_conditions: 0.5 h; 1.1 μM compound, relative to maximal stimulatory activity of lithocholic acid at 3.3 μM; 30 minutes at 37° C.; read-out: Percent Activity @ 1.1 μM (of 3.3 uM LCA) (%)
measurement_label: activation at 1.1 µM (%)
Report the value in % with no unit label.

Observe how each entry below is paired with its result.
# smiles, measurement_label, numeric_result
data = [
    ("COc1ccc(Cl)c(CSc2ncc(C(=O)N(C)Cc3ccncc3)n2-c2ccc(F)cc2)c1F", "activation at 1.1 µM", 100),
    ("CN(Cc1ccncc1)C(=O)c1cnc(SCc2cc(F)c(F)cc2Cl)n1-c1ccc(F)cc1", "activation at 1.1 µM", 94),
]

GET /value?item= Cc1nn(C)cc1CN(C)Cc1cnc(SCc2c(F)ccc(F)c2F)n1-c1ccc(F)cc1 &field=activation at 1.1 µM returns 100

GET /value?item= Cc1nn(C)cc1CN(C)C(=O)c1cnc(CSc2c(Cl)cccc2Cl)n1-c1ccc(F)cc1 &field=activation at 1.1 µM returns 96

GET /value?item= CN(Cc1cccnc1)C(=O)c1cnc(SCc2c(F)ccc(F)c2F)n1-c1ccc(F)cc1 &field=activation at 1.1 µM returns 82

GET /value?item= CN(Cc1ccncc1)C(=O)c1cnc(SCc2c(F)cccc2Cl)n1-c1ccccc1 &field=activation at 1.1 µM returns 100

GET /value?item= CCN(Cc1ccncc1)C(=O)c1cnc(SCc2c(Cl)ccc(OC)c2F)n1-c1ccc(F)cc1 &field=activation at 1.1 µM returns 100

// data source = patent US8703776B2
